Give protein stability index for every item shown.
Assay: protein stability index of a GFP-peptide fusion (GPS, HEK-293T) (PSI 1-6); higher = more stable;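 note: 24-mer peptide tiles fused after GFP, lentivirally expressed, FACS-sorted into six equal bins by GFP/DsRed ratio, decoded by Illumina sequencing, PSI is the read-weighted mean bin number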
Settings: treatment: DMSO; c terminus: a fixed tail appended
Answer field: number only, no words.

Exam item: Quick check: protein stability index of RPLRSREFPQFEPQRYPACAQMLP [TRAF3IP2] ?
Marked response: 3.07

Exam item: Now give it for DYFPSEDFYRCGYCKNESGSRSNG [ATE1] too.
Marked response: 3.07

Exam item: Lookup FPSLHQSLPQNQCYMATTKSQTAC [EHMT1]
Marked response: 3.06

Exam item: Then FFMTATQYFTNRLDMSQNVSLVTA [SLC29A1] ?
Marked response: 3.04

Exam item: Another: HMSLEKDIAAMTNSLFIDRQKCMA [TEKT4]
Marked response: 3

###

Test: protein stability index of a GFP-peptide fusion (GPS, HEK-293T) (PSI 1-6); higher = more stable
Conditions: treatment: MLN4924 1 uM, 8 h; c terminus: a fixed tail appended
What protein stability index was measured for each of the following?
Number, no unit, nothing else.

Exam item: What protein stability index value was documented for this sequence, VFKQAKDKVSDGVTKSPEKRSSLP [MAP2] ?
Marked response: 4.93

Exam item: Try AAAATVLLRTARVRRECWFLPTAL [SLC19A2] next.
Marked response: 2.28

Exam item: Also check PIPWFLPESRSLPSSPLRLGSYKA [PPEF2]
Marked response: 3.11

Exam item: What do you get for DLGLAPRELAERGVRIVSRGRTQL [PCDHGA10] ?
Marked response: 3.81

Exam item: Further, for GGKYLGRTKVVKPYSTVDNPVYYG [EFHC1] ?
Marked response: 2.97

Exam item: Now give it for PVPGKTLHLPIMGVVMKVRIPTCH [DENND6A] too.
Marked response: 2.45

Exam item: Repeat for the following sequence: PVTNNLLEKCKTLVSQSNDLSSLR [SPACA9]
Marked response: 3.14

Exam item: Can you check LYVVGGQSNYDTKGKTAVDTVFRF [KLHL13] next?
Marked response: 1.98

Exam item: Param item: AQTELLCCLVKMESLEPDAQVLML [FANCE]
Marked response: 2.34

Exam item: Likewise for KPLDLSDSTLSYTETEATNSLITA [SMAD6] ?
Marked response: 4.92

Exam item: Ok, now PELTAALRDIRAQYESIAAKNLQE [PRPH]
Marked response: 3.8

Exam item: Entry to check: VISPVIQLQPTFTPMRVALAGTFH [NSDHL]
Marked response: 2.1

Exam item: Can you handle PQAPDPEEEENRDSQQPGKRRKDS [FANCE] next?
Marked response: 5.62

Exam item: Now this one: AQEPSAVPRAGPLTVNTEAQQLLR [FOXJ1]
Marked response: 4.9

Exam item: // same read-out, input: LETEQGKPFVSVFRHLRLQYIISD [GMCL1]
Marked response: 2.05

Exam item: Further, for LKAIIFFDPDAKGLSDPGKIKRLR [HNF4A] ?
Marked response: 2.37

Exam item: Entry to check: RSPYAGLQLGAAKKPPVTFAEKGE [TRIM29]
Marked response: 4.26

Exam item: Entry VKVVLIPVGQEIVIPFKVDTILKY [IQUB] please
Marked response: 2.5

Exam item: Try this sequence next: QDEEMLELPAPAEVAAKNQSLEGD [MLH1]
Marked response: 5.66

Exam item: // same read-out, input: KGSSELGFPRVAPEDEVIVNQYVI [RNF208]
Marked response: 2.64

Exam item: Another sequence: DNEYAYLKAIIFFDPDAKGLSDPG [HNF4A]
Marked response: 2.14

Exam item: IFTKKLPHPDLPAEEKEQLLHNDE [USP39] ?
Marked response: 5.03

Exam item: Param item: TADHRIYSYVVSRPQPRGLLGWGY [FAF2]
Marked response: 2.21

Exam item: Queued: IDYKTTTILLDGRRVRLELWDTSG [RAB40C]
Marked response: 2.21

Exam item: What do we get for WEQTHLTYRIENYTPDLPRADVDH [MMP1] ?
Marked response: 3.53

Exam item: Also check ATYRRLLEGEDAHLSSQQASGQSY [KRT16]
Marked response: 4.4

Exam item: Same for NVQRLAEPSQMLKHAVVNLINYQD [CTNNB1]
Marked response: 2.83

Exam item: Now the same for GEKPFTCHECGKKFSQNSHLIKHR [ZNF75A]
Marked response: 3.9

Exam item: And then GMEGDWSWVDDTPFNKVQSARFWI [CD207] , what is it?
Marked response: 2.25

Exam item: Moving on to the next sequence: LNQVADLLEQSLEEFAQAESKDQG [ALDH8A1]
Marked response: 5.21

Exam item: Next entry: SIYIHVYFTKSGFHPDPRQKALYR [CLPTM1]
Marked response: 2.76

Exam item: Can you check VSKVVKGGSSGKGTTLRGRSDADL [OAS1] next?
Marked response: 4.48

Exam item: Moving on to the next sequence: HSIALSTFASLIGPFGGFFASGFK [CDS1]
Marked response: 2.64

Exam item: Try this sequence too: SPLEEKHDQCKCENLIMFQNLANE [MATN2]
Marked response: 4.05

Exam item: Now consider SDCEEEEEEEEEEGSGHSTGEDSA [WEE1] .
Marked response: 5.49

Exam item: Likewise for GEGTFGKVVECLDHARGKSQVALK [CLK3] ?
Marked response: 4.66

Exam item: What about GRTCITDLQLTVGGAQASGTLIGV [MFSD9] ?
Marked response: 2.04

Exam item: What do you get for HEEEVSVLRCQLGDRLNVEVDAAP [KRT36] ?
Marked response: 4.95

###

Test: protein stability index of a GFP-peptide fusion (GPS, HEK-293T) (PSI 1-6); higher = more stable
Conditions: treatment: MLN4924 1 uM, 8 h; c terminus: a fixed tail appended
I would appreciate it if you labelled entries 1 when protein stability index is 3 or higher, otherwise 0.

Exam item: Hi team, for LSQAPAEGPDLVPAALGSLTTAQI [HES6] , is the recorded protein stability index at or above 3?
Marked response: 1

Exam item: Item: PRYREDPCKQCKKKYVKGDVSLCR [FBXO34]
Marked response: 1

Exam item: And the next one, LKHPNIVRLHDSISEEGHHYLIFD [CAMK2A] ?
Marked response: 0

Exam item: Try this sequence too: YYSPILDQWTPIAAMLRGQSDVGV [KLHL13]
Marked response: 0

Exam item: What do we get for APLQADLTEQVWKVQDALQNQSDS [SCARA5] ?
Marked response: 1

###

Assay: protein stability index of a GFP-peptide fusion (GPS, HEK-293T) (PSI 1-6); higher = more stable
Settings: treatment: MLN4924 1 uM, 8 h; c terminus: a fixed tail appended
PROPERTY_NAME: protein stability index
Could you keep your reply to the number by itself?

Exam item: Entry PEFVAPEIVNYEPLGLEADMWSIG [DAPK3] has what protein stability index?
Marked response: 3.93

Exam item: Please give the result for TLWKHQFAWPFYQPVDAIKLNLPD [BRD3] too.
Marked response: 2.3

Exam item: Let us now turn to MLASVESVPFSFDPNTAAGWLSVS [TRIM35]
Marked response: 2.33

Exam item: Try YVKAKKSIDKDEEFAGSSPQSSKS [FAN1] next.
Marked response: 4.16

Exam item: Could you do the same for RMENVTVLGEDVIVNDELYLNGAS [GMPPB] , please?
Marked response: 4.1

Exam item: Now try VLIVDWDVHHGQGTQFTFDQDPSV [HDAC6] .
Marked response: 2.13

Exam item: Another sequence to look at: KAQLPRRESERRNHSLARHADILA [FBXO28]
Marked response: 3.96

Exam item: Field entry: SPMYFFLASLSFIDTVYSTAFAPK [OR4A15]
Marked response: 2.92

Exam item: # iterate: LNYLVDPVTICCGHSFCRPCLCLS [TRIM43]
Marked response: 2.42

###

Answer each item with its documented protein stability index.
Assay: protein stability index of a GFP-peptide fusion (GPS, HEK-293T) (PSI 1-6); higher = more stable
Conditions: treatment: DMSO; c terminus: a fixed tail appended
Response field accepts a number only; no unit should be typed.

Exam item: Fill in: protein stability index of TLVSSGSGTMGAAKVTGEVLDILT [FLOT1] is ___
Marked response: 2.97

Exam item: Field entry: EGLYEQAFQLLRRFVQAEGRRATL [TRADD]
Marked response: 2.28

Exam item: Next sequence up: ISQEEFARQLQLSDPQTVAGAFGY [LPCAT4]
Marked response: 3.41

Exam item: Try the sequence GIFQAMCLLICAEMYQVSRLQHIC [RHOBTB3]
Marked response: 2.99

Exam item: Now consider NISHTKEKKKGKAKKKRLTKADIG [WASL] .
Marked response: 4.78

Exam item: Another sequence to look at: KPGNNEGSGAPSPLSKSSPATTVT [SNAP91]
Marked response: 5.21
